As shown below, each of these binders has a reported pKd value.
- ASSAYED_TARGET: Human BCMA (human) (UniProt Q02223)
- PROTOCOL_DETAILS: SPR, IgG immobilised, huBCMA analyte, 37 C
The value called pKd is obtained by taking minus log10 of the concentration in mol/L.

Illustrative cases are given below, each with its answer.
1) L3.PY/L3.KF/H3.AE (antibody, V domains shown, IgG) VH: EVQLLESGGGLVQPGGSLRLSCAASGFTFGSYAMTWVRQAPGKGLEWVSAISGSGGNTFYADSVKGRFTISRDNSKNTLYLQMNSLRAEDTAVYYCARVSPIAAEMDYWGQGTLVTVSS VL: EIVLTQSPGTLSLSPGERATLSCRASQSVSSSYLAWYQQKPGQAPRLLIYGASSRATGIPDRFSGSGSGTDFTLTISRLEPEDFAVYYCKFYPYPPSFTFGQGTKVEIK = 9.29
2) L3.PY/L3.KF/H2.YQ (antibody, V domains shown, IgG) VH: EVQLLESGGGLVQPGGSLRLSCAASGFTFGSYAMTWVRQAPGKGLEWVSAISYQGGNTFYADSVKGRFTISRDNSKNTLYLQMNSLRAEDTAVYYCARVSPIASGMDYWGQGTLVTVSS VL: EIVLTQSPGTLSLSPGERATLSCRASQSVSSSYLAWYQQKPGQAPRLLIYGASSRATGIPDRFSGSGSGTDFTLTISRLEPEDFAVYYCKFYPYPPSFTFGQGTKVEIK = 8.94

Next up:
The binder listed as L3.PY/L1.FF/H2.LT (antibody, V domains shown, IgG) VH: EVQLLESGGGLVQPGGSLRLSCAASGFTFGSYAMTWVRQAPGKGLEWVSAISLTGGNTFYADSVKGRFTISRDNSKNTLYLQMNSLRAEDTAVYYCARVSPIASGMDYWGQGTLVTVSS VL: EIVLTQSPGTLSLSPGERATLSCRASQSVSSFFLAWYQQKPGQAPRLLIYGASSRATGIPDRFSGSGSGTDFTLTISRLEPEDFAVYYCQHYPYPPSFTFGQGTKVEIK has a reported pKd of 9.29

Each recorded value in this set is attributed to patent US20190241669A1.
